Source: ChEMBL document CHEMBL1136205

system-under-test: Protein kinase C gamma type (Homo sapiens, UniProt P05129)
protocol-text: Inhibition of Protein kinase C gamma at 1 uM
quantity-measured: inhibition (%)
Use % as the unit, but write only the number.

{"columns": ["compound-smiles", "system-under-test", "recorded-number"],
 "data": [
  ["CN1CCN(C)CCn2cc(c3ccccc32)C2=C(C(=O)NC2=O)c2cn(c3ccccc23)CC1", "Protein kinase C gamma type (Homo sapiens, UniProt P05129)", 23],
  ["CCN1CCOCCN(CC)CCn2cc(c3ccccc32)C2=C(C(=O)NC2=O)c2cn(c3ccccc23)CCOCC1", "Protein kinase C gamma type (Homo sapiens, UniProt P05129)", 36],
  ["CN1CCOCCOCCN(C)CCn2cc(c3ccccc32)C2=C(C(=O)NC2=O)c2cn(c3ccccc23)CC1", "Protein kinase C gamma type (Homo sapiens, UniProt P05129)", 37]
]}

Given the entry CN1CCOCCn2cc(c3ccccc32)C2=C(C(=O)NC2=O)c2cn(c3ccccc23)CCOCC1 , report its measured inhibition.
28
